Could you please report measured Kd for the items listed next?
target: T1, recombinant soluble human C4.4a (human, UniProt O95274 31-308)
T1 construct: recombinant, soluble, purified protein; also called hC4.4a; full length C4.4a
T1 sequence: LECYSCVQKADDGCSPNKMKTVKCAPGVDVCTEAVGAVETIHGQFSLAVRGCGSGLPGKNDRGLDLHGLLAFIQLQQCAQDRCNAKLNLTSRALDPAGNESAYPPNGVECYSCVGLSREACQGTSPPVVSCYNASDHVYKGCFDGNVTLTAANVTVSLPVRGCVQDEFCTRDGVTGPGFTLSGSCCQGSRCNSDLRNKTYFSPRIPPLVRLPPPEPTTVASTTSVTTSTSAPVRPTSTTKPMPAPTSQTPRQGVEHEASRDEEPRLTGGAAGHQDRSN
test_description: SPR (Biacore T100), IgG1 captured by anti-human Fc, soluble C4.4a injected, 1:1 fit
Procedure: Binding affinities of anti C4.4 antibodies were determined by surface plasmon resonance analysis on a Biacore T100 instrument (GE Healthcare Biacore, Inc.). […] The dissociation equilibrium constant (KD) was calculated based on the ratio of association (kₒₙ) and dissociation rated (koff) constants, obtained by fitting sensograms with a first order 1:1 binding model using Biavaluation Software (version 4.0).
Could you give me the number in nM? Just the number is fine.

Ask | Recorded Kd of B01-12 (antibody, V domains shown, tested as human IgG1) VH: EVQLLESGGGLVQPGGSLRLSCAASGFTFSSAWMSWVRQAPGKGLEWVSYISSSGSSTYYADSVKGRFTISRDNSKNTLYLQMNSLRAEDTAVYYCAREGLWAFDKWGQGTLVTVSS VL: QSVLTQPPSASGTPGQRVTISCSGSSSNIGAGYVVHWYQQLPGTAPKLLIYDNNQRPSGVPDRFSGSKSGTSASLAISGLRSEDEADYYCAAFDDRLSGPVFGGGTKLTVLG , please.
Reply | 1

Ask | For B01-3 (antibody, human IgG1, V domains shown, tested as human IgG1; also called B01-03) VH: EVQLLESGGGLVQPGGSLRLSCAASGFTFSNAWMSWVRQAPGKGLEWVSYISSSGSTIYYADSVKGRFTISRDNSKNTLYLQMNSLRAEDTAVYYCAREGLWAFDYWGQGTLVTVSS VL: ESVLTQPPSVSGAPGQRVTISCTGSSSNIGAGYVVHWYQQLPGTAPKLLIYDNNKRPSGVPDRFSGSKSGTSASLAISGLRSEDEADYYCAAWDDRLNGPVFGGGTKLTVLG then?
Reply | 60

Ask | For B01-10 (antibody, human IgG1, V domains shown, tested as human IgG1) VH: EVQLLESGGGLVQPGGSLRLSCAASGFTFSSAWMSWVRQAPGKGLEWVSYISSSGSTIYYADSVKGRFTISRDNSKNTLYLQMNSLRAEDTAVYYCAREGLWAFDYWGQGTLVTVSS VL: QSVLTQPPSVSGAPGQRVTISCTGSSSNIGAGYVVHWYQQLPGTAPKLLIYDNNKRPSGVPDRFSGSKSGTSASLAISGLRSEDEADYYCAAYDDSLSGPVFGGGTKLTVLG then?
Reply | 4

Ask | For M31-B01 (antibody, human IgG1, V domains shown, tested as human IgG1) VH: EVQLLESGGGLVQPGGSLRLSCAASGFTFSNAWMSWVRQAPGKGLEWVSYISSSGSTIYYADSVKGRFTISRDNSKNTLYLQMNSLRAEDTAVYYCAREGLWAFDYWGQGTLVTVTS VL: QSVLTQPPSASGTPGQRVTISCTGSSSNIGAGYVVHWYQQLPGTAPKLLIYDNNKRPSGVPDRFSGSKSGTSASLAISGLRSEDEADYYCAAWDDRLNGPVFGGGTKLTVLG then?
Reply | 70
